tested on: 755483-174-R-J1-PDC complex spheroid growth, percent test/control; experiment: Anticancer human tumor 755483-174-R-J1-PDC patient-derived rhabdomyosarcoma cell line growth inhibition [Asc]; details: second compound 3 µM; first compound 0.00316 µM; active compounds read low;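 further: spheroids exposed to compounds for seven days before readout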
assay.endpoint: viability, T/C (%)
I only need the number, in %, no unit after it.

- CCN1CCN(Cc2ccc(Nc3ncc(F)c(-c4cc(F)c5nc(C)n(C(C)C)c5c4)n3)nc2)CC1 + CCN1C(C(=O)NC23CCC(C(=O)O)(CC2)CC3)C(c2cccc(Cl)c2F)C2(C(=O)Nc3cc(Cl)ccc32)C12CCCCC2: 107
- CNC(C)C(=O)NC1CN(S(=O)(=O)c2cccc(S(=O)(=O)N3CCC4CCC(C(=O)NC(c5ccccc5)c5ccccc5)N4C(=O)C(NC(=O)C(C)NC)C3)c2)CCC2CCC(C(=O)NC(c3ccccc3)c3ccccc3)N2C1=O (stereo unspecified) + CCN1C(C(=O)NC23CCC(C(=O)O)(CC2)CC3)C(c2cccc(Cl)c2F)C2(C(=O)Nc3cc(Cl)ccc32)C12CCCCC2: 51.5
- NC1CCC(NC2CC2c2ccccc2)CC1 (stereo unspecified) + CCN1C(C(=O)NC23CCC(C(=O)O)(CC2)CC3)C(c2cccc(Cl)c2F)C2(C(=O)Nc3cc(Cl)ccc32)C12CCCCC2: 90.2
- COc1c(OCCCN2CCOCC2)ccc2c3n(c(=NC(=O)c4cnc(N)nc4)nc12)CCN3 + CCN1C(C(=O)NC23CCC(C(=O)O)(CC2)CC3)C(c2cccc(Cl)c2F)C2(C(=O)Nc3cc(Cl)ccc32)C12CCCCC2: 53.2
- O=C(c1ccc(F)c(F)c1Nc1ccc(I)cc1F)N1CC(O)([C@@H]2CCCCN2)C1 + CCN1C(C(=O)NC23CCC(C(=O)O)(CC2)CC3)C(c2cccc(Cl)c2F)C2(C(=O)Nc3cc(Cl)ccc32)C12CCCCC2: 104

Next, consider the following molecule.
Data request: Which viability, T/C is reported with 755483-174-R-J1-PDC complex spheroid growth, percent test/control for this entry: Cn1ncnc1[C@H]1c2n[nH]c(=O)c3cc(F)cc(c23)N[C@@H]1c1ccc(F)cc1 + CCN1C(C(=O)NC23CCC(C(=O)O)(CC2)CC3)C(c2cccc(Cl)c2F)C2(C(=O)Nc3cc(Cl)ccc32)C12CCCCC2 ?
Data returned: 45.5

Data credit: PubChem BioAssay AID1963434
